Reference source for all entries: ChEMBL document CHEMBL2321817

Target: Human immunodeficiency virus type 1 reverse transcriptase (Human immunodeficiency virus 1, UniProt Q72547)
Assay: Inhibition of wild type HIV-1 reverse transcriptase p66/p51 NNRTI adjacent binding site after 30 mins by fluorescence assay
Reported property: IC50 (µM)
One number for each entry, in µM.

Please fill in: IC50 reported for "CCOC(=O)c1cnn2ccccc12" = 350

---

Molecular target: Human immunodeficiency virus type 1 reverse transcriptase (Human immunodeficiency virus 1, UniProt Q72547)
Assay: Inhibition of wild type HIV-1 reverse transcriptase 507 site incubated after 30 mins by fluorescence assay
Reported property: pIC50
One number for each entry, as −log10 of the molar value.

Please fill in: pIC50 reported for "CN(CC(=O)N1CCCc2ccccc21)Cc1nc(=O)c2ccccc2[nH]1" = 3.82

---

Biological target: UniProt Q72547
Test: Inhibition of wild type HIV-1 reverse transcriptase knuckles site after 30 mins by fluorescence assay
Reported property: pIC50
Give bare numbers, as −log10 of the molar value.

Please fill in: pIC50 reported for "Oc1ccc(OC(F)(F)F)cc1" = 3.22
